Values compiled from PubChem BioAssay (NCI).

- Tested on: NCI-H322M lung
- assay procedure: NCI-60 one-dose screen, 48 h
- condition summary: 10 µM unless noted
This is part of a sample that, as a whole, favours compounds with a hit. Of some 83,000 tested, about 20% had one in any assay. Calls of active or inactive are those of the source. Rule for the calls: active = growth percent below 10; inactive = the rest.
Response enum: label 1 for active, label 0 for inactive

Just curious, what result did C=C1CC[C@@H]2[C@]3(C)COC(c4cn(-c5ccccc5)nc4-c4ccccc4)O[C@@H]3CC[C@@]2(C)[C@@H]1C/C=C1/C(=O)OC[C@H]1O (some centres undefined) get here?
label 0

Just curious, what result did COc1c(F)ccc(C(=O)Nc2ccc3nc(NC(=O)C4CCCN(S(=O)(=O)c5cccc(C(F)(F)F)c5)C4)sc3c2)c1F (centres undefined) get here?
label 0

Just curious, what result did "COc1ccc(-c2ccnc(SCc3cc4ccccc4[nH]c3=O)n2)cc1OC" get here?
label 1

Just curious, what result did CC1=C(C(=O)OCc2ccccc2)C(c2ccc(-n3cncn3)cc2)n2c(nc3ccccc32)N1 (centres undefined) get here?
label 0

Just curious, what result did "O=C(CN1C(=O)/C(=C/c2ccccc2Cl)SC1=S)N1CCOCC1" get here?
label 0

Just curious, what result did "CC(C)Sc1nc(NCCc2c[nH]c3ccccc23)c(C#N)c(-c2ccc(F)cc2)n1" get here?
label 0

Just curious, what result did OCC1(CCCc2ccccc2)CCCN(c2nccc3ccccc23)C1 (centres undefined) get here?
label 0

Just curious, what result did "Cc1ccc(NCC(=O)Cn2cc(COc3ccc(C=Nc4cnc5ccccc5c4)cc3)nn2)cc1" get here?
label 0

Just curious, what result did "COc1ccc(C(=O)/C=C/c2ccccc2Cl)cc1S(N)(=O)=O" get here?
label 0
